# TESTED SYSTEM: Indoleamine 2,3-dioxygenase 1 (Mus musculus)
# METHOD: Inhibition of mouse IDO expressed in mouse P815B cells assessed as tryptophan degradation at 20 uM
# Format: cell-based
The source made the active and inactive calls. The rule behind the calls is not given here.
REPORTED METRIC: inhibition

Take a look at these entries with their results.
• O=C(Cc1ccncc1)c1cc2ccccc2[nH]1 = inactive
• COc1cccc2cc(C(=O)Cc3cccnc3)[nH]c12 = 6%
• O=C(Cc1ccccc1)c1cc2ccccc2[nH]1 = inactive
• COc1ccc2[nH]c(C(=O)Cc3cccnc3)cc2c1O = 11%

Notebook entry, Indoleamine 2,3-dioxygenase 1 (Mus musculus) assay: inhibition of O=C(Cc1ccccn1)c1cc2ccccc2[nH]1 = ?
10%

Proceed to O=C(Cc1cccnc1)c1cc2c(O)cccc2[nH]1
inactive

Proceed to c1cncc(CCc2cc3ccccc3[nH]2)c1
inactive

Proceed to Cc1ccc2[nH]c(C(=O)Cc3cccnc3)cc2c1
21%

Proceed to O=C(Cc1cnccn1)c1cc2ccccc2[nH]1
inactive

Proceed to O=C(Cc1cccnc1)c1cc2cc([N+](=O)[O-])ccc2[nH]1
inactive

Proceed to O=C(Cc1cccnc1)c1cc2cc(F)ccc2[nH]1
24%

Proceed to O=C(Cc1cccnc1)c1cc2c(Cl)cc(Cl)cc2[nH]1
inactive

Proceed to O=C(Cc1cccnc1)c1cc2ccccc2[nH]1
13%

Proceed to O=C(Cc1cccnc1)c1cc2cc(Cl)ccc2[nH]1
24%

Proceed to CC(C(=O)c1cc2ccccc2[nH]1)c1cccnc1 (stereo not drawn)
inactive

---

# TESTED SYSTEM: Indoleamine 2,3-dioxygenase 1 (Homo sapiens, UniProt P14902)
# Sequence (P14902 whole entry): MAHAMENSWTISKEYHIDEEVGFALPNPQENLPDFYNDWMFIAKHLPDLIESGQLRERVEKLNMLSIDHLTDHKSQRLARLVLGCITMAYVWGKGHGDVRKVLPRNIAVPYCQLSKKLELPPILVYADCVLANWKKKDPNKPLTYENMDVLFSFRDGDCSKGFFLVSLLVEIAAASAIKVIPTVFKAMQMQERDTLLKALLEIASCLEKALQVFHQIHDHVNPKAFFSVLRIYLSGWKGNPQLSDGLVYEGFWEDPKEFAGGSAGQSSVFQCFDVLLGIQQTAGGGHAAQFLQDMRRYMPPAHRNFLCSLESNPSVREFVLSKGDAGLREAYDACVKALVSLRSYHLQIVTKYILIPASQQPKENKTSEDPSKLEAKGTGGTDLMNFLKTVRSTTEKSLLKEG
# METHOD: Inhibition of human IDO activity by spectrophotometry
# MEASUREMENT SETUP: read-out: IC50
Label 1 (yes) when IC50 is strictly below 40 µM; otherwise label 0 (no).

Below 40 µM on IC50? Entry COc1cccc2cc(C(=O)Cc3cccnc3)[nH]c12
0 (no)

Proceed to O=C(Cc1cnccn1)c1cc2ccccc2[nH]1
1 (yes)

Proceed to O=C(Cc1cccnc1)c1cc2ccccc2[nH]1
0 (no)

Proceed to O=C(Cc1cccnc1)c1cc2cc(OC(F)(F)F)ccc2[nH]1
1 (yes)

Proceed to O=C(Cc1cccnc1)c1cc2c(F)cccc2[nH]1
0 (no)

Proceed to O=C(Cc1cccnc1)c1cc2c(O)cccc2[nH]1
0 (no)

Proceed to O=C(Cc1cccnc1)c1cc2c(Cl)cc(Cl)cc2[nH]1
0 (no)

Proceed to O=C(Cc1cccnc1)c1cc2ccc(F)cc2[nH]1
0 (no)

Proceed to O=C(Cc1ccccn1)c1cc2ccccc2[nH]1
1 (yes)

Proceed to O=C(Cc1cccnc1)c1cc2cc(Cl)ccc2[nH]1
1 (yes)

Proceed to COc1ccc2[nH]c(C(=O)Cc3cccnc3)cc2c1O
0 (no)

Proceed to O=C(Cc1cccnc1)c1cc2cc(O)ccc2[nH]1
1 (yes)

Proceed to CC(C(=O)c1cc2ccccc2[nH]1)c1cccnc1 (stereo not drawn)
0 (no)

Proceed to O=C(Nc1cccnc1)c1cc2ccccc2[nH]1
0 (no)

Proceed to O=C(Cc1cccnc1)c1cc2cc(-c3ccccc3)ccc2[nH]1
0 (no)

Proceed to O=C(Cc1ccccc1)c1cc2ccccc2[nH]1
1 (yes)

Proceed to COc1cc(OC)c2cc(C(=O)Cc3cccnc3)[nH]c2c1
0 (no)

Proceed to COc1ccc2[nH]c(C(=O)Cc3cccnc3)cc2c1
0 (no)

Proceed to O=C(Cc1cccnc1)c1cc2cc(Br)ccc2[nH]1
1 (yes)

Proceed to O=C(Cc1cccnc1)c1cc2cc(F)ccc2[nH]1
1 (yes)

Proceed to COc1cccc2[nH]c(C(=O)Cc3cccnc3)cc12
0 (no)

Proceed to Cn1c(C(=O)Cc2cccnc2)cc2ccccc21
1 (yes)

Proceed to Cc1ccc2[nH]c(C(=O)Cc3cccnc3)cc2c1
0 (no)
